# targetDesc: UniProtKB Q05397
# Sequence (Q05397 whole entry, the tested form may be a part): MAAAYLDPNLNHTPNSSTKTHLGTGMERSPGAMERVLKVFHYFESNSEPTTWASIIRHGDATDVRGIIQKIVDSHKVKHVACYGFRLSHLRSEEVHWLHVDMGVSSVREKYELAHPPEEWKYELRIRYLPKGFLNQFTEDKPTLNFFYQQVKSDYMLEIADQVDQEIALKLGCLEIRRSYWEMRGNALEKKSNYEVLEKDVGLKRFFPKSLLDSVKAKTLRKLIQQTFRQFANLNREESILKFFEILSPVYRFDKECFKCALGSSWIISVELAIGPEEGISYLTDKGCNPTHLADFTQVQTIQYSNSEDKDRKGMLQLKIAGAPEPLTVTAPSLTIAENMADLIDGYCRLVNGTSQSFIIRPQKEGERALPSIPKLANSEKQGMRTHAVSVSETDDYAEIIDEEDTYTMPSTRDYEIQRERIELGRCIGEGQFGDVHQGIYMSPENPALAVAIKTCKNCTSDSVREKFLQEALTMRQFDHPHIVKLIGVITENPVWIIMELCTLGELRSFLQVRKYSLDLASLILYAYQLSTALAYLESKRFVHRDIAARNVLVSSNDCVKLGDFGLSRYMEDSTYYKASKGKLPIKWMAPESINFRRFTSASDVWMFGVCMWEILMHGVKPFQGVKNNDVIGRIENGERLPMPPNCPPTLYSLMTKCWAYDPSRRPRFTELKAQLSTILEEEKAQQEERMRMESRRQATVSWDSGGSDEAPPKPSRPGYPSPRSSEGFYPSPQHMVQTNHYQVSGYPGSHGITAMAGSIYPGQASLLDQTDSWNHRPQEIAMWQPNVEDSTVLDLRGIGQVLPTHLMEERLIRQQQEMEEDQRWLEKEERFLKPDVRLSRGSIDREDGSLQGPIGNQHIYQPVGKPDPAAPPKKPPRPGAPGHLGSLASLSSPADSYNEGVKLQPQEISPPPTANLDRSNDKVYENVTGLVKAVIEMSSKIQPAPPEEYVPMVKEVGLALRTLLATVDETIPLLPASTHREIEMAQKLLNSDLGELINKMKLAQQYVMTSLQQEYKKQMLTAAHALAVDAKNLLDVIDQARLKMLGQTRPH
# assaySummary: Inhibition of recombinant human N-terminal His-tagged FAK cytoplasmic domain (393 to 698 residues) expressed in baculovirus infected sf9 cells assessed as reduction in autophosphorylation after 60 mins by ADP-Glo kinase assay
parameter: IC50 (nM)
Use nM as the unit, but write only the number.

Observed IC50, UniProtKB Q05397, CCOP(=O)(CCCOc1ccc(Nc2ncc([N+](=O)[O-])c(Nc3ccccc3C(=O)NC)n2)cc1)OCC : 6.18

The recorded IC50 with UniProtKB Q05397 for CCOP(=O)(CCCOc1ccc(Nc2ncc([N+](=O)[O-])c(Nc3ccccc3C(=O)NC)n2)cc1)N1CCOCC1 (stereo unspecified) was 4.65

Note to self: IC50 of CCOP(=O)(CCCOc1ccc(Nc2ncc(Cl)c(Nc3ccccc3C(=O)NC)n2)cc1)OCC with UniProtKB Q05397 was 10.7

IC50 on UniProtKB Q05397 for CCOP(=O)(Cc1ccc(Nc2ncc(Cl)c(Nc3ccccc3C(=O)NC)n2)cc1)OCC is 4.25

Sample CCOP(=O)(Cc1ccc(Nc2ncc([N+](=O)[O-])c(Nc3ccccc3C(=O)NC)n2)cc1)N1CCOCC1 (stereo unspecified) , system: UniProtKB Q05397. Its IC50 is 5.69

API: the following record is the query input.
Field IC50 (system: UniProtKB Q05397) for entry CCOP(=O)(Cc1ccc(Nc2ncc([N+](=O)[O-])c(Nc3ccccc3C(=O)NC)n2)cc1)OCC = 5.01

###

# System: ASPC1
# assaySummary: Antiproliferative activity against human Aspc-1 cells after 72 hrs by MTT assay
# Format: functional, cell-based
# testConditions: ASPC1, 72 h
pIC50 for assorted compounds
Note on units: pIC50 is unitless, being -log10 of a concentration expressed in mol/L.

Previously resolved entries follow.
Looking up CCOP(=O)(Cc1ccc(Nc2ncc(Cl)c(Nc3ccccc3C(=O)NC)n2)cc1)OCC , I found its pIC50 recorded as 5.48

Item: CCOP(=O)(CCCOc1ccc(Nc2ncc(Cl)c(Nc3ccccc3C(=O)NC)n2)cc1)OCC | pIC50: 5.31

pIC50 reported for this compound CCOP(=O)(Cc1ccc(Nc2ncc([N+](=O)[O-])c(Nc3ccccc3C(=O)NC)n2)cc1)N1CCOCC1 (stereo unspecified) : 5.19

Recorded pIC50 (compound CCOP(=O)(CCCOc1ccc(Nc2ncc([N+](=O)[O-])c(Nc3ccccc3C(=O)NC)n2)cc1)OCC ): 4.74

***
Documented pIC50 of CCOP(=O)(Cc1ccc(Nc2ncc([N+](=O)[O-])c(Nc3ccccc3C(=O)NC)n2)cc1)OCC : 4.82

Just so you know, measured pIC50 for CCOP(=O)(CCCOc1ccc(Nc2ncc([N+](=O)[O-])c(Nc3ccccc3C(=O)NC)n2)cc1)N1CCOCC1 (stereo unspecified) came out at 5.78

###

# System: BXPC-3
# assaySummary: Antiproliferative activity against human BxPC3 cells after 72 hrs by MTT assay
# Type: functional, cell-based
# testConditions: BXPC-3, 72 h
Each record here notes measured IC50.
Kindly answer with a numeric value in nM, unit omitted.

Consider the reported IC50 for these compounds:
# IC50 measured on BXPC-3 for item CCOP(=O)(CCCOc1ccc(Nc2ncc(Cl)c(Nc3ccccc3C(=O)NC)n2)cc1)OCC = 1040

// IC50 (BXPC-3) for CCOP(=O)(CCCOc1ccc(Nc2ncc([N+](=O)[O-])c(Nc3ccccc3C(=O)NC)n2)cc1)OCC = 2040

Short answer on BXPC-3 for CCOP(=O)(Cc1ccc(Nc2ncc([N+](=O)[O-])c(Nc3ccccc3C(=O)NC)n2)cc1)N1CCOCC1 (stereo unspecified) , IC50: 1020

Continuing:
Observed IC50, BXPC-3, CCOP(=O)(CCCOc1ccc(Nc2ncc([N+](=O)[O-])c(Nc3ccccc3C(=O)NC)n2)cc1)N1CCOCC1 (stereo unspecified) : 570

The value of IC50 recorded for CCOP(=O)(Cc1ccc(Nc2ncc([N+](=O)[O-])c(Nc3ccccc3C(=O)NC)n2)cc1)OCC when tested on BXPC-3 reads 820

Bench note, BXPC-3: entry CCOP(=O)(Cc1ccc(Nc2ncc(Cl)c(Nc3ccccc3C(=O)NC)n2)cc1)OCC , its IC50 = 20

Entry source: ChEMBL document CHEMBL4177662
